Every entry's value here was drawn from ChEMBL document CHEMBL4261576.

# System: Respiratory syncytial virus
# protocol_description: Antiviral activity against RSV B Washington infected in human HEp2 cells assessed as protection against virus-induced cytopathic effect after 6 days by resazurin assay
# Type: functional, organism-based
# protocol_conditions: HEp-2, 144 h
experimental_endpoint: pIC50
The read-out pIC50 is expressed as -log10 of concentration in moles per litre.

The molecule `Cc1cnc(N2CC3(CCOCC3)C2)c(C(=O)Nc2ccc(C(=O)N3C[C@H](C)c4cc(C(=O)Nc5c(C)cccc5F)sc4-c4ccccc43)cc2)c1` showed pIC50 equal to 7.82

The molecule `Cc1cnc(N2CC3(CCOCC3)C2)c(C(=O)Nc2ccc(C(=O)N3c4ccccc4-c4sc(C(=O)Nc5c(F)cccc5F)cc4C[C@H]3C)cc2)c1` showed pIC50 equal to 8.04

The recorded pIC50 for entry Cc1cnc(N2CC3(CCOCC3)C2)c(C(=O)Nc2ccc(C(=O)N3CCc4cc(C(=O)Nc5c(C)cccc5F)sc4-c4ccccc43)cc2)c1 [PC-786] equals 8.14

Value of measured pIC50 for the entry Cc1cnc(N2CC3(CCOCC3)C2)c(C(=O)Nc2ccc(C(=O)N3c4ccccc4-c4sc(C(=O)Nc5c(F)cccc5F)cc4CC3C)cc2)c1 (racemic) : 7.89

GET /value?item= Cc1cnc(N2CC3(CCOCC3)C2)c(C(=O)Nc2ccc(C(=O)N3CC(C)c4cc(C(=O)Nc5c(C)cccc5F)sc4-c4ccccc43)cc2)c1 (racemic) &field=pIC50 returns 7.77
